# system under test: Human Cot (Homo sapiens (Human))
# assay explanation: High Throughput Cot Biochemical Assay
# applied conditions: IC50 HTRF, Cot HTRF (TR-FRET) biochemical assay
Record form. Attribute: pIC50. Fill in for each entry.
Answers are plain numbers, as −log10 of the molar value.

Reference set, count: 2
Cc1nc(F)ccc1[C@H](Nc1cc(Cl)c2ncc(C#N)c(N[C@@H]3CCOCC3(C)C)c2c1)c1cn(C2(C(F)F)CC2)nn1 : 9.00
CC(C)(C)CNc1c(C#N)cnc2c(Cl)cc(N[C@H](c3cn(C4(C(N)=O)CCC4)nn3)c3cccc4ncsc34)cc12 : 8.70

Query string: Record Cn1ccc2c([C@H](Nc3cc(Cl)c4ncc(C#N)c(NCC(C)(C)C(F)(F)F)c4c3)c3cn(C4(C(F)F)CC4)nn3)cccc2c1=O : what is its pIC50 with Human Cot (Homo sapiens (Human))?
Result string: 8.52

* * *

# system under test: UniProt:P41279
# assay explanation: High Throughput Cot Biochemical Assay
# applied conditions: IC50 HTRF, Cot HTRF (TR-FRET) biochemical assay
recorded metric: pIC50
Answers are plain numbers, as −log10 of the molar value.

# count of solved cases: 2
Cc1nc(F)ccc1[C@H](Nc1cc(Cl)c2ncc(C#N)c(NCC34CC(C3)C4)c2c1)c1cn(C2(C(F)F)CC2)nn1 : 7.68
CC(C)(C)N1CCC(n2cc([C@@H](Nc3cc(Cl)c4ncc(C#N)c(NC5CCCCCC5)c4c3)c3cccnc3)nn2)CC1 : 7.59

Query string: What measured pIC50 goes with N#Cc1cnc2c(Cl)cc(N[C@H](c3cn(C4COC4)nn3)c3ccc(Cl)nc3Cl)cc2c1Nc1ccc(F)c(Cl)c1 ?
Result string: 7.48

* * *

# System: TNFα
# assay explanation: Cot Monocyte TNFα Cell Based Assay
# applied conditions: Homo sapiens, Monocyte, read-out: EC50 TNF, LPS-stimulated human monocytes, TNFα TR-FRET
recorded metric: EC50 (nM)
Give bare numbers, in nM.

Before answering, review these 5 worked examples.
Cc1c([C@H](Nc2cc(Cl)c3ncc(C#N)c(NCC(C)(C)C)c3c2)c2cn(C3(C(F)(F)F)CC3)nn2)ccnc1Cl : 223
C[C@@H](CF)n1cc([C@@H](Nc2cc(C#N)c3ncc(C#N)c(NCC(C)(C)C)c3c2)c2cccc3ncccc23)nn1 : 44
Cc1nc(F)ccc1[C@H](Nc1cc(Cl)c2ncc(C#N)c(NCC(C)(C)C)c2c1)c1nnn(C2(C3CC3)CC2)c1F : 34
Cn1ccc2c([C@H](Nc3cc(C#N)c4ncc(C#N)c(NCC(C)(C)C)c4c3)c3cn(C45CC(C4)C5)nn3)cccc2c1=O : 12
CC(C)(CNc1c(C#N)cnc2c(Cl)cc(N[C@H](c3cn(C4(C(F)F)CC4)nn3)c3ccc(F)c4ncccc34)cc12)C(F)(F)F : 42

Okay, next one:
Query string: For CC(C)(C)CNc1c(C#N)cnc2c(C#N)cc(N[C@H](c3cn(C4(C(F)F)CC4)nn3)c3cccc4c(=O)[nH]ccc34)cc12 , what is its reported EC50?
Result string: 385

* * *

What log10 of EC50 was measured for each of the following?
# Tested on: TNFα
# assay explanation: Cot Monocyte TNFα Cell Based Assay
# applied conditions: Homo sapiens, Monocyte, read-out: EC50 TNF, LPS-stimulated human monocytes, TNFα
The common logarithm of EC50 in nM is what is listed.

Cc1nc(F)ccc1[C@H](Nc1cc(Cl)c2ncc(C#N)c(NCC(C)(C)C)c2c1)c1cn(C2(C(=O)N3CCOCC3)CC2)nn1 : 2.32
CCn1ccc2c([C@H](Nc3cc(Cl)c4ncc(C#N)c(NCC(C)(C)C)c4c3)c3cn(C4(C)CC4)nn3)cccc2c1=O : 1.54

Take each entry in turn and give its log10 of EC50.
1. Cc1nc(F)ccc1[C@H](Nc1cc(Cl)c2ncc(C#N)c(NCC(C)(C)C)c2c1)c1cn(C2(C(F)(F)F)CC2)nn1
2. CC(C)(CNc1c(C#N)cnc2c(Cl)cc(N[C@H](c3cn(C4(C5CC5)CC4)nn3)c3cccc4ncccc34)cc12)C(F)(F)F
3. N#Cc1cnc2c(Cl)cc(N[C@@H](C3=CCOCC3)c3c[nH]nn3)cc2c1Nc1cnc(F)c(F)c1

Result string:
1: 1.95; 2: 1.95; 3: 3.08

For every item in the list below, what is its measured log10 of EC50?
1. Cc1nc(F)ccc1[C@H](Nc1cc(Cl)c2ncc(C#N)c(NCC(C)(C)CO)c2c1)c1cn(C2(C(F)(F)F)CC2)nn1
2. CCN1Cc2cccc([C@H](Nc3cc(Cl)c4ncc(C#N)c(Nc5ccc(F)c(Cl)c5)c4c3)c3c[nH]nn3)c2C1
3. CCc1nc(F)ccc1[C@H](Nc1cc(Cl)c2ncc(C#N)c(NCC(C)(C)C)c2c1)c1cn(C2(C(F)(F)F)CC2)nn1
4. Cn1ccc2c([C@H](Nc3cc(Cl)c4ncc(C#N)c(NCC(C)(C)C(F)(F)F)c4c3)c3cn(C4(C(F)(F)F)CC4)nn3)cccc2c1=O

Result string:
[2.60, 2.81, 2.47, 1.72]

The following compounds each have a reported value; give each one's log10 of EC50.
1. CC(C)(C)CNc1c(C#N)cnc2c(S(C)(=O)=O)cc(N[C@H](c3cn(C4(C(F)(F)F)CC4)nn3)c3cccc4ncsc34)cc12
2. Cn1nnc2cccc([C@H](Nc3cc(Cl)c4ncc(C#N)c(NCC(C)(C)C)c4c3)c3cn(C4(C(F)F)CC4)nn3)c21

Result string:
3.43
1.60

* * *

# Tested on: TNFα
# assay explanation: Cot Monocyte TNFα Cell Based Assay
# applied conditions: Homo sapiens, Monocyte, read-out: EC50 TNF, LPS-stimulated human monocytes, TNFα
Task for the reader: assign each of the following compounds its reported pEC50.
One number for each entry, as −log10 of the molar value.

Cc1ccc([C@H](Nc2cc(Cl)c3ncc(C#N)c(Nc4ccc(F)c(Cl)c4)c3c2)c2cn(C(C)C)nn2)cn1 : 6.09
CN1Cc2cccc([C@H](Nc3cc(Cl)c4ncc(C#N)c(NCC(C)(C)C)c4c3)c3cn(C4(C(F)F)CC4)nn3)c2C1=O : 6.16
Cc1ncsc1[C@H](Nc1cc(Cl)c2ncc(C#N)c(Nc3ccc(Cl)c(Cl)c3F)c2c1)c1cn(C(C)C)nn1 : 6.43
Cc1ncsc1[C@H](Nc1cc(Cl)c2ncc(C#N)c(NCC(C)(C)C)c2c1)c1cn(C2(C(F)F)CC2)nn1 : 6.72
Cn1ccc2c([C@H](Nc3cc(Cl)c4ncc(C#N)c(NCC(C)(C)C)c4c3)c3cn(C4(C)CC4)nn3)cccc2c1=O : 7.62

Value sought for every listed compound: pEC50.
1. Cc1nc(F)ccc1[C@H](Nc1cc(Cl)c2ncc(C#N)c(NCC(C)(C)C)c2c1)c1cn(CC(C)(F)F)nn1
2. CC(C)(C)CNc1c(C#N)cnc2c(Cl)cc(N[C@H](c3cn(C4(C(F)(F)F)CC4)nn3)c3cccc4c(=O)[nH]ccc34)cc12
3. Cc1nc(F)ccc1[C@H](Nc1cc(C#N)c2ncc(C#N)c(NCC(C)(C)C)c2c1)c1cn(C(F)(F)CO)nn1
4. Cc1nc(F)ccc1[C@H](Nc1cc(C#N)c2ncc(C#N)c(NCC(C)(C)C)c2c1)c1cn(C2(C3CC3)CC2)nn1
5. Cc1nc(F)ccc1[C@H](Nc1cc(C#N)c2ncc(C#N)c(NCC(C)(C)C)c2c1)c1cn(C2(C(F)(F)F)CC2)nn1
6. N#Cc1cnc2c(Cl)cc(N[C@@H](c3cccnc3)c3c[nH]nn3)cc2c1Nc1ccc(Cl)c(Cl)c1F
7. N#Cc1cnc2c(Cl)cc(N[C@H](c3cn(C4COC4)nn3)c3cccnc3Cl)cc2c1Nc1ccc(F)c(Cl)c1

Result string:
1: 7.18; 2: 6.95; 3: 6.99; 4: 7.92; 5: 7.35; 6: 6.47; 7: 6.78

Query string: If you can, please state the reported pEC50 value of Cc1nc(F)ccc1[C@@H](Nc1cc(Cl)c2ncc(C#N)c(N[C@H](CCC#N)c3ccccc3)c2c1)c1cn(C2CC2)nn1 .
Result string: 6.00

* * *

# system under test: Human Cot (Homo sapiens (Human), UniProt P41279)
# Sequence (P41279 30-397): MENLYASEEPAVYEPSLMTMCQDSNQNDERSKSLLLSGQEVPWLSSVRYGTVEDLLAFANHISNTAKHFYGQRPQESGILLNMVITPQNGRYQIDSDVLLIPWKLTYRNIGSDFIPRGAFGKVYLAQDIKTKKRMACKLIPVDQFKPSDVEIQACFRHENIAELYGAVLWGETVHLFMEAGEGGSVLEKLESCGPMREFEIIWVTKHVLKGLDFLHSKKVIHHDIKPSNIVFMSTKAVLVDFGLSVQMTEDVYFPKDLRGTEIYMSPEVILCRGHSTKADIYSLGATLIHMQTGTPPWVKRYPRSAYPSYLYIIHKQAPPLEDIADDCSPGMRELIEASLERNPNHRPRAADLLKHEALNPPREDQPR
# assay explanation: High Throughput Cot Biochemical Assay
# applied conditions: IC50 HTRF, Cot HTRF (TR-FRET KinEASE) biochemical assay, 400 μM ATP
recorded metric: pIC50
One number for each entry, as −log10 of the molar value.

Cn1ccc2c([C@H](Nc3cc(C#N)c4ncc(C#N)c(NCC(C)(C)C(F)(F)F)c4c3)c3cn(C4(C)CC4)nn3)cccc2c1=O [Example 884] : 9.00
Cn1ccc2c([C@H](Nc3cc(C#N)c4ncc(C#N)c(NCC(C)(C)C(F)(F)F)c4c3)c3cn(C4(C(F)F)CC4)nn3)cccc2c1=O [Example 838] : 8.52
Cc1nc(F)ccc1[C@H](Nc1cc(Cl)c2ncc(C#N)c(NCC(C)(C)C(F)(F)F)c2c1)c1nnn(C23CC(C2)C3)c1F [Example 956] : 8.15
CC(C)(C)CNc1c(C#N)cnc2c(C#N)cc(N[C@H](c3cn([C@@H]4C[C@@H]4F)nn3)c3cccc4ncccc34)cc12 [Example 899] : 8.70

# batch: return pIC50 for each of the 5 compounds below
1. Cc1nc(F)ccc1[C@H](Nc1cc(C#N)c2ncc(C#N)c(NCC(C)(C)C)c2c1)c1cn(CC2(C(F)(F)F)CC2)nn1 [Example 839]
2. Cc1nc(F)ccc1[C@H](Nc1cc(Cl)c2ncc(C#N)c(NCC(C)(C)C)c2c1Br)c1nnn(C2(C(F)F)CC2)c1F [Example 975]
3. Cc1nc(F)ccc1[C@H](Nc1cc(Cl)c2ncc(C#N)c(NCC(C)(C)C)c2c1)c1nnn(C)c1F [Example 963]
4. CC(C)(C)CNc1c(C#N)cnc2c(C#N)cc(N[C@H](c3cn(C4(C(F)F)CC4)nn3)c3cccc4c(=O)n(CC(F)F)ccc34)cc12 [Example 870]
5. Cc1nc(F)ccc1[C@H](Nc1cc(C#N)c2ncc(C#N)c(NCC(C)(C)C)c2c1)c1cn(C(CF)CF)nn1 [Example 869]

Result string:
1. 8.22
2. 5.91
3. 8.40
4. 8.70
5. 8.70

For each of the compounds below, note its pIC50.
1. C[C@@H](CF)n1cc([C@@H](Nc2cc(C#N)c3ncc(C#N)c(NCC(C)(C)C)c3c2)c2cccc3ncccc23)nn1 [Example 892]
2. CC(C)(CNc1c(C#N)cnc2c(Cl)cc(N[C@H](c3cn(C45CC(C4)C5)nn3)c3ccc(F)c4ncccc34)cc12)C(F)(F)F [Example 917]
3. Cc1nc(F)ccc1[C@H](Nc1cc(Cl)c2ncc(C#N)c(NCC(C)(C)C)c2c1F)c1cn(C2(C(F)F)CC2)nn1 [Example 983]
4. CC(C)(CNc1c(C#N)cnc2c(C#N)cc(N[C@H](c3cn(C4(C5CC5)CC4)nn3)c3cccc4ncccc34)cc12)C(F)(F)F [Example 896]

Result string:
1: 8.70; 2: 8.52; 3: 5.02; 4: 8.52

Recorded values, source patent US11066414B2.
